Biological target: UniProtKB P10275
Sequence (P10275 whole entry): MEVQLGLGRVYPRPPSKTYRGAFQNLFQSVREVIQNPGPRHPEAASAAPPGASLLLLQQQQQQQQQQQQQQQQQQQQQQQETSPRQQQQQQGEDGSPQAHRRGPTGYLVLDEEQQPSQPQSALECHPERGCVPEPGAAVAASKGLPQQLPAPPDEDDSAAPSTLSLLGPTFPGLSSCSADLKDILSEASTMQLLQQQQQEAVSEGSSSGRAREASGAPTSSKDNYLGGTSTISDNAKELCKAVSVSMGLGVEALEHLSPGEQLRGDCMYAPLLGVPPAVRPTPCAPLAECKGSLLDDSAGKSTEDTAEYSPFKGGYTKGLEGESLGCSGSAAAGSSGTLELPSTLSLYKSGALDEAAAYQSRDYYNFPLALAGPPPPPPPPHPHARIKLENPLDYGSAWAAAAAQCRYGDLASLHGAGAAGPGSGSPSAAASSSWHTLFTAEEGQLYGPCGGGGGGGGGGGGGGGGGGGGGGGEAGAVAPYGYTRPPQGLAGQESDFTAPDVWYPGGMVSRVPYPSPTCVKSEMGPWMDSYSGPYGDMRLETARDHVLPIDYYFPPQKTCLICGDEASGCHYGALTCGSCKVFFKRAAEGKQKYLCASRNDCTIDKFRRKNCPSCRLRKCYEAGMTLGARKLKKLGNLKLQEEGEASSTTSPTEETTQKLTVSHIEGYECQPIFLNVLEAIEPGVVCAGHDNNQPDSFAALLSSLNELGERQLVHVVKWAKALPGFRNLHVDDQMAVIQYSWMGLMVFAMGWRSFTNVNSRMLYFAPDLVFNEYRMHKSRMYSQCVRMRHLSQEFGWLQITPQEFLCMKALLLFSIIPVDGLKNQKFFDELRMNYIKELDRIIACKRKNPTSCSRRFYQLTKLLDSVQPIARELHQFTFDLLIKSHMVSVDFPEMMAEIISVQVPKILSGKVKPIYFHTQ
Assay: LNCaP-AR-wt ANT reporter assay (antagonist mode)
Type: cell-based
Conditions: antagonist mode; pIC50 = −Log10(IC50 in Molar); read-out: LNCaP-AR-wt ANT pIC50 (converted)
experimental-readout: log10 IC50 (log10 of the value in nM)
Units before log transform: nM; reported quantity: IC50; transform: log10.

Notebook entry, UniProtKB P10275 assay: log10 IC50 of Cc1cc(N2C(=O)C3(CCC3)N(c3ccc(CC4CCNCC4)cc3)C2=S)cnc1C#N = ? 3.03

Notebook entry, UniProtKB P10275 assay: log10 IC50 of C[C@@H]1OC(c2ccc(N3C(=S)N(c4cnc(C#N)c(C(F)(F)F)c4)C(=O)C34CCC4)cc2)=C[C@H](O)[C@H]1O = ? 2.59

Notebook entry, UniProtKB P10275 assay: log10 IC50 of CN1CC[C@H](Oc2ccc(N3C(=S)N(c4cnc(C#N)c(C(F)(F)F)c4)C(=O)C34CCC4)cc2)[C@@H](F)C1 (racemic) = ? 1.89

Notebook entry, UniProtKB P10275 assay: log10 IC50 of N#Cc1ncc(N2C(=O)C3(CCC3)N(c3ccc4c(cnn4CC4CCNCC4)c3)C2=S)cc1C(F)(F)F = ? 3.03

Notebook entry, UniProtKB P10275 assay: log10 IC50 of Cc1nc2cc(N3C(=S)N(c4cnc(C#N)c(C(F)(F)F)c4)C(=O)C34CCC4)ccc2[nH]1 = ? 2.68

Notebook entry, UniProtKB P10275 assay: log10 IC50 of N#Cc1ncc(N2C(=O)C3(CCC3)N(c3ccc(OC4CCC(N)CC4)cc3)C2=S)cc1C(F)(F)F (stereo not drawn) = ? 1.60

Notebook entry, UniProtKB P10275 assay: log10 IC50 of CN1CCCC(Oc2ccc(N3C(=S)N(c4cnc(C#N)c(C(F)(F)F)c4)C(=O)C34CCC4)cc2)CC1 (stereo not drawn) = ? 2.82

Notebook entry, UniProtKB P10275 assay: log10 IC50 of CN1CCC12CC(Oc1ccc(N3C(=S)N(c4cnc(C#N)c(C(F)(F)F)c4)C(=O)C34CCC4)cc1)C2 (stereo not drawn) = ? 2.52

Notebook entry, UniProtKB P10275 assay: log10 IC50 of N#Cc1ncc(N2C(=O)C3(CCC3)N(c3ccc4c(cnn4CCO)c3)C2=S)cc1Cl = ? 2.86

Notebook entry, UniProtKB P10275 assay: log10 IC50 of CN1CCOC(c2ccc(N3C(=S)N(c4cnc(C#N)c(C(F)(F)F)c4)C(=O)C34CCC4)cc2)C1 (stereo not drawn) = ? 2.35

Notebook entry, UniProtKB P10275 assay: log10 IC50 of N#Cc1ncc(N2C(=O)C3(CCC3)N(c3ccc(CN4CCN(C5CC5)CC4)cc3)C2=S)cc1C(F)(F)F = ? 2.87

Notebook entry, UniProtKB P10275 assay: log10 IC50 of CCNC(=O)n1cc(-c2ccc(N3C(=S)N(c4cnc(C#N)c(C)c4)C(=O)C34CCC4)cc2)cn1 = ? 2.53

Notebook entry, UniProtKB P10275 assay: log10 IC50 of CN1CC2CC1CC2Oc1ccc(N2C(=S)N(c3cnc(C#N)c(C(F)(F)F)c3)C(=O)C23CCC3)cc1 (stereo not drawn) = ? 2.68

Notebook entry, UniProtKB P10275 assay: log10 IC50 of CC(C)(C)OC(=O)N1CCC(CNC(=O)c2ccc(N3C(=S)N(c4cnc(C#N)c(C(F)(F)F)c4)C(=O)C34CCC4)cc2)CC1 = ? 2.34

Notebook entry, UniProtKB P10275 assay: log10 IC50 of Cc1cc(N2C(=O)C3(CCC3)N(c3ccc(OCCCN(C)C)nc3)C2=S)cnc1C#N = ? 2.34

Notebook entry, UniProtKB P10275 assay: log10 IC50 of Cn1cnc2cc(N3C(=S)N(c4cnc(C#N)c(C(F)(F)F)c4)C(=O)C34CCC4)ccc21 = ? 2.81

Notebook entry, UniProtKB P10275 assay: log10 IC50 of N#Cc1ncc(N2C(=O)C3(CCC3)N(c3ccc4nn(CC5CCNCC5)cc4c3)C2=S)cc1C(F)(F)F = ? 2.44

Notebook entry, UniProtKB P10275 assay: log10 IC50 of CN1CCC(Oc2ccc(N3C(=S)N(c4cnc(C#N)c(Cl)c4)C(=O)C34CCC4)cn2)CC1 = ? 1.74
